Target Under Test: Protein-tyrosine kinase 6 (Homo sapiens) (UniProt Q13882)
Sequence (Q13882 whole entry, looked up): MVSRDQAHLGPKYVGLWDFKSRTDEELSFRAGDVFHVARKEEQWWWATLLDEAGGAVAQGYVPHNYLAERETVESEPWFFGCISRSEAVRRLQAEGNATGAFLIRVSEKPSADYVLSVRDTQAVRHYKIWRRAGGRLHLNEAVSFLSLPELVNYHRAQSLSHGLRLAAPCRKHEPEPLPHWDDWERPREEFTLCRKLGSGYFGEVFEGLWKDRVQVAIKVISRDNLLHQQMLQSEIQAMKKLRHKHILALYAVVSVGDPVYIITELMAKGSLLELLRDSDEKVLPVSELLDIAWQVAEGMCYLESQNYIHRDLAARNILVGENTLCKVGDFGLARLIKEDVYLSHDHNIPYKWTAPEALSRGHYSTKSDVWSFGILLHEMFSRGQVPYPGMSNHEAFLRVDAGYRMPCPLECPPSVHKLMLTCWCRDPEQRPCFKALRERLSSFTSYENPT
Test Parameters: at 0.1 µM
Description: GSK_PKIS: BRK mean inhibition at 0.1 uM [Nanosyn]
Recorded measurements of inhibition, one per entry

Given Smiles | Target Under Test | Units Label | inhibition
N#Cc1cccc(Nc2ncc(-c3ccccc3)o2)c1 | Protein-tyrosine kinase 6 (Homo sapiens) (UniProt Q13882) | % | 3.51
Cc1c2ccc(N(C)c3ccnc(Nc4cccc(S(N)(=O)=O)c4)n3)cc2nn1C | Protein-tyrosine kinase 6 (Homo sapiens) (UniProt Q13882) | % | 13.8
CCN1CCC(C(=O)Nc2n[nH]c3nnc(-c4cccc(F)c4F)cc23)CC1 | Protein-tyrosine kinase 6 (Homo sapiens) (UniProt Q13882) | % | -0.63
COc1cc(N2CCN(C(C)C)CC2)ccc1Nc1nc(Nc2cccc(F)c2C(=O)O)c2cc[nH]c2n1 | Protein-tyrosine kinase 6 (Homo sapiens) (UniProt Q13882) | % | 4.63
Cc1nnc(-c2cccc(-c3ccc(C(=O)NCC4CC4)cc3)c2)o1 | Protein-tyrosine kinase 6 (Homo sapiens) (UniProt Q13882) | % | 6.64
COc1cccc(-n2ncc3c(N/N=C/c4ccc(C(=O)NCCN(C)C)cc4)ncnc32)c1 | Protein-tyrosine kinase 6 (Homo sapiens) (UniProt Q13882) | % | 9.98
CCOc1ccc2c(-c3ccnc(Nc4cc(OC)cc(C(F)(F)F)c4)n3)cnn2n1 | Protein-tyrosine kinase 6 (Homo sapiens) (UniProt Q13882) | % | 1.51
CCS(=O)(=O)c1ccc(OC)c(Nc2ncc(-c3cccc(F)c3)o2)c1 | Protein-tyrosine kinase 6 (Homo sapiens) (UniProt Q13882) | % | 9.28
NC(=O)c1ccc2c(-c3ccnc(NCCCO)n3)c(-c3ccc(F)cc3)nn2c1 | Protein-tyrosine kinase 6 (Homo sapiens) (UniProt Q13882) | % | 6.4
